tested system: hNR2B (Homo sapiens, UniProt Q05586+Q13224)
Construct: expressed in transfected cells; host or cells: Xenopus laevis oocytes, cRNA-injected
Sequence (Q13224 27-1484, other chains not shown): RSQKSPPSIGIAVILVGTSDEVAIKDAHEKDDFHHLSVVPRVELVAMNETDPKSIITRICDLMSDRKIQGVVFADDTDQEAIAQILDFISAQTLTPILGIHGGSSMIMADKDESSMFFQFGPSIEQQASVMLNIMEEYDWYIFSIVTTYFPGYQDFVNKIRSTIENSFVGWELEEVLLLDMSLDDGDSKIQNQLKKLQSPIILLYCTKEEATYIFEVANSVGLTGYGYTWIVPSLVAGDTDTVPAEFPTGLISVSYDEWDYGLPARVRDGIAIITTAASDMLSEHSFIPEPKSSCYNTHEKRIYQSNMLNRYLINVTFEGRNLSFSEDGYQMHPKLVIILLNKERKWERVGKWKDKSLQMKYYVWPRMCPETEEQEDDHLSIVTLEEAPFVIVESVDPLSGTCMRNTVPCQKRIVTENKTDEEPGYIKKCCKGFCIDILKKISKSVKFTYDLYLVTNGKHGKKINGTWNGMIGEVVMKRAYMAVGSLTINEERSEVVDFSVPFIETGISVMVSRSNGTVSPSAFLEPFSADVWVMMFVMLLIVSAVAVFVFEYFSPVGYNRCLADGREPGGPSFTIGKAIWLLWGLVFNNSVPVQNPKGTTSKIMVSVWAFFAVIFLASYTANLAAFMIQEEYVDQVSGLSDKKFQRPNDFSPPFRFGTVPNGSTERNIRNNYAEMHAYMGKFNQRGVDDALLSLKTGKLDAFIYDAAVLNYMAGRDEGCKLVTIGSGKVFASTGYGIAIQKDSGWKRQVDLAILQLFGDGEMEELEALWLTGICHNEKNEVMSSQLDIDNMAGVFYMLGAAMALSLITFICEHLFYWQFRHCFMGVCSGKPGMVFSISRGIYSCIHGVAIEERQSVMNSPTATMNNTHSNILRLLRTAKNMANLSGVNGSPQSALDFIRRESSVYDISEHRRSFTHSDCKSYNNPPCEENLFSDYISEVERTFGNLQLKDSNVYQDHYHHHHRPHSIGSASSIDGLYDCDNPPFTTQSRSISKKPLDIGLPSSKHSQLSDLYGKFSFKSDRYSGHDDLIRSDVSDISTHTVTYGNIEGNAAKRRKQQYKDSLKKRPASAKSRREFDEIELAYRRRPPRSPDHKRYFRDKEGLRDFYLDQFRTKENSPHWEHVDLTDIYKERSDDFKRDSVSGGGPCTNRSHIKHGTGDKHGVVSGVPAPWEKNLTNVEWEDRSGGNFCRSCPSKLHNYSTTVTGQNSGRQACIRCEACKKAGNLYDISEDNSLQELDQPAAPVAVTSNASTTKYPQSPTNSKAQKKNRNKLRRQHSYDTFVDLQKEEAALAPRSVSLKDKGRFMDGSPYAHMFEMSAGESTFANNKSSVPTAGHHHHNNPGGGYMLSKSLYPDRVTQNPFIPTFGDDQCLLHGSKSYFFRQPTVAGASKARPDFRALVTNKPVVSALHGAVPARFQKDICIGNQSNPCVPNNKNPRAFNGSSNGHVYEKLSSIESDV
experiment notes: Electrophysiology NMDA receptor experiments: two electrode voltage-clamp in Xenopus laevis oocytes, hNR2B IC50
Format: cell-based
experimental context: hNR2B activity class, 50 μM glutamate, 30 μM glycine, read-out: Activity
Items are presented alongside their recorded IC50.
experimental endpoint: IC50

substance_smiles=FC(F)Oc1ccc(Nc2noc(CCc3ccc4[nH]ncc4c3)n2)cc1Cl result="> 10000 nM"
substance_smiles=O=C1CCc2cc(OCc3nnc(Nc4ccc(Cl)cn4)o3)ccc2N1 result="> 10000 nM"
substance_smiles=O=C1CCc2cc(OCc3nc(Nc4ccc(C(F)(F)F)cc4)no3)ccc2N1 result="1000 to 10000 nM"
substance_smiles=O=C1CCc2cc(OCc3nnc(Nc4ccc(OC(F)F)cc4)o3)ccc2N1 result="201 to 1000 nM"
substance_smiles=Clc1ccc(CNc2nnc(COc3ccc4c(c3)CCCN4)o2)cc1Cl result="> 10000 nM"
substance_smiles=FC(F)(F)c1ccc(Nc2noc(CCCc3ccc4[nH]ncc4c3)n2)cc1 result="> 10000 nM"
substance_smiles=FC(F)Oc1ccc(Nc2noc(CCNc3ncnc4[nH]ncc34)n2)cc1Cl result="< 200 nM"
substance_smiles=COc1ccc(Nc2noc(COc3ccc4[nH]c(=O)ccc4c3)n2)cc1F result="< 200 nM"
substance_smiles=O=c1ccc2cc(OCc3cc(Nc4ccc(C(F)(F)F)c(Cl)c4)no3)ccc2[nH]1 result="< 200 nM"
substance_smiles=O=c1ccc2cc(OCc3nnc(Nc4ccccc4)o3)ccc2[nH]1 result="1000 to 10000 nM"
substance_smiles=O=c1ccc2cc(OCc3cc(Nc4ccc(OC(F)F)c(F)c4)no3)ccc2[nH]1 result="< 200 nM"
substance_smiles=O=C1CCc2cc(OCc3nnc(Nc4ccc(C(F)(F)F)cc4)s3)ccc2N1 result="< 200 nM"
substance_smiles=Cc1ccc(Nc2nnc(COc3ccc4[nH]c(=O)ccc4c3)o2)cc1Cl result="< 200 nM"
substance_smiles=FC(F)(F)c1ccc(Nc2noc(COc3ccc4[nH]ncc4c3)n2)cc1 result="> 10000 nM"
substance_smiles=Oc1ccc(CCc2nnc(Nc3ccc(Cl)c(Cl)c3)o2)cc1 result="< 200 nM"
